Origin of values: the supplement of paper PMC4466236

- Test system: MvaT
- ASSAY_SUMMARY: PBM 8-mer E-score (mean of HK and ME arrays) (E-score (dimensionless, -0.5 to 0.5)); higher = stronger relative binding preference
Over roughly 33,000 sequences, “E-score (dimensionless, -0.5 to 0.5)” has its median near -0.058; the highest 2% begin near 0.35. Many of the other results were omitted from the sample, so the highest values are more common in it than they were.
Reported PBM 8-mer E-score values for the following sequences.
MEASURED_ENDPOINT: PBM 8-mer E-score

AGTCCGAG	-0.29
AGTTCAGG	0.0672
TGATGGAA	0.0193
CGTTATTA	0.364
AAAATAGA	0.173
ATTTAATC	0.346
CTTCGTGC	-0.0984
GGACAGTA	-0.0349
AACATGTC	-0.0784
ATTTAATA	0.411
CGTTATCA	0.111
GATATGTA	0.282
CCCTGATC	-0.224
AAAATAAA	0.409
CAAATAAA	0.301
AAAAAGAG	0.0446
CTTTAATC	0.141
CCCGGCGA	-0.269
AAAAATCA	0.0153
AATATGTA	0.365
AAGCAGGT	0.0586
CTTTAATA	0.344
TGATACAA	0.145
AAAATAAG	0.331
GGAGCCAC	-0.325
CCCTCACA	-0.151
ATTTAAGA	0.239
AACATGTA	0.347
AACATGTT	0.295

###

- Tested on: MvaT
- ASSAY_SUMMARY: PBM 8-mer E-score (mean of HK and ME arrays) (E-score (dimensionless, -0.5 to 0.5)); higher = stronger relative binding preference
In all, about 33,000 sequences were measured (“E-score (dimensionless, -0.5 to 0.5)”: median about -0.058, highest 2% from about 0.35 on). The sample as a whole holds a higher share of the highest values than the screen did.
MEASURED_ENDPOINT: PBM 8-mer E-score

AGTGGTAG	0.00056
ATTTAAGG	0.101
CGCCTACG	-0.307
ATCCTGGA	0.0568
AGAATTTC	0.122
AATAACAT	0.32
CGAATATC	0.0677
GTAACTTA	0.37
ACAGGCCG	-0.147
AGGTCCTG	-0.144
CGAATATA	0.355
ATTTAACA	0.376
ATCGCCAT	0.016
GTAACTGA	0.199
ACCATATC	0.099
GTAATTTA	0.388
CTAATTTC	0.0429
CCAACCGA	-0.0134
TGGTTGAA	-0.0872
ATATAAGG	0.31
GTAATTCA	0.191
GAAACAAA	0.271
ATTTAATG	0.376
CGAATTTA	0.157
AATAACAA	0.38
AGAATATA	0.378
GTAATTGA	0.264
GGTTAATA	0.276
CGTGTCCA	-0.105
ATGCTCTA	-0.124
GTTTAATA	0.407
TACGACAA	0.131
ATAATTTA	0.416
GTAACTCA	0.116
CCAATCGG	-0.128
ATAACTTA	0.429
AGCTGTCA	-0.156
ATATAATG	0.402
